- TARGET SYSTEM: SIRT2 (Homo sapiens, UniProt Q8IXJ6)
- Construct: SIRT2 (whole)
- Sequence (Q8IXJ6 whole entry): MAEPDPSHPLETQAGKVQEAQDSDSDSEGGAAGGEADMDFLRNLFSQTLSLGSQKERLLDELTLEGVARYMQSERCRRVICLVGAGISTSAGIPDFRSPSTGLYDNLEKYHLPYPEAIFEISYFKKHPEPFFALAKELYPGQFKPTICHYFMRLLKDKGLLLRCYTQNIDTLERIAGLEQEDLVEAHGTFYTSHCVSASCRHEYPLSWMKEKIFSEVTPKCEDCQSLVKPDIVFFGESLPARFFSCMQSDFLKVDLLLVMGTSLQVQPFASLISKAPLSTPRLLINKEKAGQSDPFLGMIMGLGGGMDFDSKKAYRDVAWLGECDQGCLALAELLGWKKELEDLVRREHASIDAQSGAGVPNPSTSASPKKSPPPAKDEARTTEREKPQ
- ASSAY METHOD TEXT: AMC-peptide fluorogenic deacetylase assay with recombinant SIRT2; Lineweaver-Burk kinetics
MEASURED PROPERTY: IC50 (µM)
The response must be a number in µM with no trailing unit.

[ask] Item under review: `COc1ccc2ccc(=O)oc2c1CC=C(C)C` . Reported IC50?
[reply] 10

Origin of the recorded values: paper PMC6100537
